The values you see were collected from paper PMC5607274.

# measured target: human recombinant Yes [a.a. 2–543 (end)] (Homo sapiens, UniProt P07947)
# Construct: human recombinant Yes [a.a; 2–543 (end)]; purchased BPS Bioscience 40488
# Sequence (P07947 2-543): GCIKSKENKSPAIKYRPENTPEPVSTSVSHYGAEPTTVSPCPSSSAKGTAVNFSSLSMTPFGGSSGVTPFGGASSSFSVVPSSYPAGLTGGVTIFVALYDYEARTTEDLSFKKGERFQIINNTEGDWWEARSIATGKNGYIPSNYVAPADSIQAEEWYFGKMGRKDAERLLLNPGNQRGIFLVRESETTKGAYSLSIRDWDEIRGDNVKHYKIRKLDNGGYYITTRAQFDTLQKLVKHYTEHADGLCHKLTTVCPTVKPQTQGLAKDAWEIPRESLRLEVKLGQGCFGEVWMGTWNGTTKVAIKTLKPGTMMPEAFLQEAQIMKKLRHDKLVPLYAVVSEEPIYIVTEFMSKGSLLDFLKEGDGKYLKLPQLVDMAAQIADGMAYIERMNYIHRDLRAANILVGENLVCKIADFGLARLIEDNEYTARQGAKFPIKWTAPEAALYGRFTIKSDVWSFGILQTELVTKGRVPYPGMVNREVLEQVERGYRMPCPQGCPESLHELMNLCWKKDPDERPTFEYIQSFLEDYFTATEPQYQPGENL
# assay method text: ADP-Glo kinase assay, inhibition rates of Yes phosphorylation activity (first and second screening)
# Assay type: biochemical
# setup conditions: first screening; mean of n = 4 wells; 10 μmol L−1 compound
measure name: First screening IR (inhibition rate) (%)

Use these answered entries as a reference point.
compound	measured target	First screening IR (inhibition rate) [%]
Nc1c(S(=O)(=O)c2ccccc2)c2nc3ccccc3nc2n1CCNC(=O)c1ccc(Cl)cc1	human recombinant Yes [a.a. 2–543 (end)] (Homo sapiens, UniProt P07947)	9
Cc1cc(F)cc2[nH]c(C(=O)NC3CN(C(=O)OC(C)(C)C)CC3C#N)cc12 (stereo not shown)	human recombinant Yes [a.a. 2–543 (end)] (Homo sapiens, UniProt P07947)	6

(I) CCCCn1c(CN2CCN(C(=O)c3ccco3)CC2)nc2c1c(=O)[nH]c(=O)n2Cc1ccccc1
(II) Cc1ccc2c(=O)c(C(=O)N(C)CC(=O)Nc3ccc(Cl)c(Cl)c3)c[nH]c2n1
*Q* // pick larger First screening IR (inhibition rate) from pair: I vs II Bench note: the answer is the label of the chosen record.
*A* II
